Tested on: MILI (PIWIL2) piRISC loaded with L1MC piRNA (26 nt);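 also: 1 nM active piRISC with 0.1 nM target library at 33 °C single turnover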
Assay Protocol: pre-steady-state target cleavage rate (min^-1); guide: L1MC piRNA 5'p-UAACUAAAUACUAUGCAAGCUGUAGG; higher = faster piRNA-guided slicing of the target
Condition Parameters: auxiliary factor: 500 nM mouse GTSF1
Could you label it label 1 if measured pre-steady-state target cleavage rate is 0.05 or higher, and label 0 otherwise?

- Sequence Text: "UCCUGGAUGAGCUUGGUAAGUAUUUAGUUA"
  Class: "label 0"
- Sequence Text: "UCCUGGAUGAGCUUGCAUAGAUUUUAGUUA"
  Class: "label 0"
- Sequence Text: "UCCUGGAUGAGCUUGCUUAGUAUUUAGAAA"
  Class: "label 1"
- Sequence Text: "UCCUGCUAGAGCUAGCAUAGUAUUUAGUUA"
  Class: "label 1"
- Sequence Text: "UCCUGGAUCAGCUUGCAAAGUAUUUAGAUA"
  Class: "label 1"
- Sequence Text: "UCCUGGAUGUCGUUGCAUAGUCUUUAGUUA"
  Class: "label 0"
- Sequence Text: "UCCUCCUACAGCUUGCAAAGUUUUUAGUUA"
  Class: "label 0"
- Sequence Text: "UCCUGCUACAGCUUGCAUAGUUUAUAGUUA"
  Class: "label 1"
- Sequence Text: "UCCUGGAACAGCUUGCAUAGUAAAAAGAAA"
  Class: "label 0"
- Sequence Text: "UCCUGGUACAGCUUGCAUAGUAAUUUAGUUA"
  Class: "label 1"
- Sequence Text: "UCCUGGAUCAGCUUACAUAGUAUUUAGUUA"
  Class: "label 1"
- Sequence Text: "UCCUGGAUGAGCUUGCAUAGAAUUUAGUAA"
  Class: "label 0"

###

Tested on: MILI (PIWIL2) piRISC loaded with L1MC piRNA (26 nt);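 also: 1 nM active piRISC with 0.1 nM target library at 33 °C single turnover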
Assay Protocol: pre-steady-state target cleavage rate (min^-1); guide: L1MC piRNA 5'p-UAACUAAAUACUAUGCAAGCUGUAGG; MIWI and MILI are mouse PIWI proteins and EfPiwi is from a freshwater sponge; tags in brackets are library labels; higher = faster piRNA-guided slicing of the target
Condition Parameters: auxiliary factor: 500 nM mouse GTSF1
Reported pre-steady-state target cleavage rate values for the following sequences.

- Sequence Text: "UCCUGGAUGUCGUUGCAUAGUUUUUAGUAA"
  pre-steady-state target cleavage rate: 0.00481
- Sequence Text: "UCCUCGAUCAGCUUGCAUAGUAUUUAGAAA"
  pre-steady-state target cleavage rate: 0.115
- Sequence Text: "UCCUGGAUGUGCUUGCAUAGUAUUUACAAA"
  pre-steady-state target cleavage rate: 0.00913
- Sequence Text: "UCCUGGAUGUGCUUGCAUACAAUUUAGUUA"
  pre-steady-state target cleavage rate: 0.00405
- Sequence Text: "UCCUGGUACAGCUUGCAUAGUAUAUAGUUA"
  pre-steady-state target cleavage rate: 0.274
- Sequence Text: "UCCUGGAUCAGCUUGCAAUGUAUUUAGUAA"
  pre-steady-state target cleavage rate: 0.0826
- Sequence Text: "UCCUGGUACAUGCUUGCAUAGUAUUUAGUUA"
  pre-steady-state target cleavage rate: 0.131
- Sequence Text: "UCCUGGAUCACCUUGCAUAGUAUUUUGUUA"
  pre-steady-state target cleavage rate: 0.11
- Sequence Text: "UCCUGGAUCAGCUUGCAUAGUAUAUAGUUA"
  pre-steady-state target cleavage rate: 0.268
- Sequence Text: "UCCUGCUUCAGCUUGCAUAGUAUUUACAAA"
  pre-steady-state target cleavage rate: 0.212
- Sequence Text: "UCCUGGAUCAGCUUGCAUAGUUUUUACAAA"
  pre-steady-state target cleavage rate: 0.012
- Sequence Text: "UCCUGGUACAGCUAGCAUAGUAUUUACAAA"
  pre-steady-state target cleavage rate: 0.0365
- Sequence Text: "UCCUGGUAGAGCUUGCAUAGUAUUUUGUUA"
  pre-steady-state target cleavage rate: 0.143
- Sequence Text: "UCCUGGAUGUCGAUGCAUAGUAUUUUAGUUA"
  pre-steady-state target cleavage rate: 0.0747
- Sequence Text: "UCCUGGAACAGCUUGCAUACUAUUUAGAAA"
  pre-steady-state target cleavage rate: 0.0271
- Sequence Text: "UCCUCCUACAGCUAGCAUAGUAUUUACAAA"
  pre-steady-state target cleavage rate: 0.0849
- Sequence Text: "UCCUGGAUGAGCUUGCUAAGUAUUUAGUAA"
  pre-steady-state target cleavage rate: 0.0109
- Sequence Text: "UCCUGGUUCAGCUUCCAUAGUAUUUAGUUA"
  pre-steady-state target cleavage rate: 0.0301
- Sequence Text: "UCCUGCUACAGCUUGCAUAGUAUUAUCAAA"
  pre-steady-state target cleavage rate: 0.0862
- Sequence Text: "UCCUGGAACAGCUUGCAUAGUAAUUUGUUA"
  pre-steady-state target cleavage rate: 0.0687
- Sequence Text: "UCCUGGUACGAGCUUGCAUAGUAUUUAGUUA"
  pre-steady-state target cleavage rate: 0.247
- Sequence Text: "UCCUGGAUGUGCUUGCUUAGUAUUUUGUUA"
  pre-steady-state target cleavage rate: 0.0645
- Sequence Text: "UCCUCCUACAGCUUGCAUAGAUAUUUAGUUA"
  pre-steady-state target cleavage rate: 0.0178
- Sequence Text: "UCCUGGAUGUCGAAGCAUAGUAUUUAUUUA"
  pre-steady-state target cleavage rate: 0.0073
- Sequence Text: "UCCUCCUACAGCUUCCAUAGUAAUUAGUUA"
  pre-steady-state target cleavage rate: 0.0149
- Sequence Text: "UCCUCGUACAGCUUGCAUAGUAUUUACAAA"
  pre-steady-state target cleavage rate: 0.105
- Sequence Text: "UCCUGGAUCAGCUACCAUAGUAUUUAGUUA"
  pre-steady-state target cleavage rate: 0.145
- Sequence Text: "UCCUGGAACAGCAUGCAUAGAAUUUAGUUA"
  pre-steady-state target cleavage rate: 0.0767

Measured values drawn from the supplement of paper PMC10338343 for this set.
